Tested on: Escherichia coli TOP10
Experiment: shrunken log2 fold change of peptide-encoding DNA abundance (4.5 h post-induction vs induction); higher = less antimicrobial activity (less host growth inhibition)
Details: time post-induction: 4.5 h; library: site-saturation at positions 5, 18, 19, 20
Reported shrunken log2 fold change is given for each of the following sequences.

SEQUENCE_ENTRY	EXPERIMENTAL_TARGET	shrunken log2 fold change
RRIRGRPPRLPRPRPRPPCNPRP	Escherichia coli TOP10	0.489
RRIRERPPRLPRPRPRPGCEPRP	Escherichia coli TOP10	-0.00695
RRIRERPPRLPRPRPRPGFSPRP	Escherichia coli TOP10	-0.196

----------
Tested on: Escherichia coli TOP10
Experiment: shrunken log2 fold change of peptide-encoding DNA abundance (4.5 h post-induction vs induction); higher = less antimicrobial activity (less host growth inhibition)
Settings: time post-induction: 4.5 h; library: site-saturation at positions 5, 18, 19, 20
ASSAY_METRIC: shrunken log2 fold change

SEQUENCE_ENTRY	EXPERIMENTAL_TARGET	QUANTITATIVE_READOUT
RRIRIRPPRLPRPRPRPITGPRP	Escherichia coli TOP10	-0.0492
RRIRIRPPRLPRPRPRPLHWPRP	Escherichia coli TOP10	-0.138
RRIRFRPPRLPRPRPRPQCCPRP	Escherichia coli TOP10	-0.067
RRIRWRPPRLPRPRPRPWLHPRP	Escherichia coli TOP10	-0.0248
RRIRIRPPRLPRPRPRPSAHPRP	Escherichia coli TOP10	-0.202
RRIRVRPPRLPRPRPRPKHTPRP	Escherichia coli TOP10	-0.177
RRIRLRPPRLPRPRPRPSKNPRP	Escherichia coli TOP10	-0.296
RRIRPRPPRLPRPRPRPNLGPRP	Escherichia coli TOP10	-0.242
RRIRSRPPRLPRPRPRPSQMPRP	Escherichia coli TOP10	-0.161
RRIRVRPPRLPRPRPRPSVGPRP	Escherichia coli TOP10	-0.659
RRIRERPPRLPRPRPRPGEYPRP	Escherichia coli TOP10	-0.267
RRIRCRPPRLPRPRPRPSFSPRP	Escherichia coli TOP10	-0.571
RRIRGRPPRLPRPRPRPGGDPRP	Escherichia coli TOP10	0.937
RRIRTRPPRLPRPRPRPPQAPRP	Escherichia coli TOP10	0.121
RRIRDRPPRLPRPRPRPYIPPRP	Escherichia coli TOP10	-0.456
RRIRRRPPRLPRPRPRPNNEPRP	Escherichia coli TOP10	-0.246
RRIRHRPPRLPRPRPRPENMPRP	Escherichia coli TOP10	-0.042
RRIRIRPPRLPRPRPRPIHCPRP	Escherichia coli TOP10	-0.00133

----------
Tested on: Escherichia coli TOP10
Assay: shrunken log2 fold change of peptide-encoding DNA abundance (4.5 h post-induction vs induction); higher = less antimicrobial activity (less host growth inhibition)
Conditions: time post-induction: 4.5 h; library: site-saturation at positions 5, 18, 19, 20
Reported shrunken log2 fold change is given for each of the following sequences.
ASSAY_METRIC: shrunken log2 fold change

SEQUENCE_ENTRY	QUANTITATIVE_READOUT
RRIRYRPPRLPRPRPRPGCMPRP	-0.546
RRIRVRPPRLPRPRPRPVVCPRP	0.251
RRIRMRPPRLPRPRPRPNENPRP	0.314
RRIRCRPPRLPRPRPRPSLIPRP	-0.286
RRIRCRPPRLPRPRPRPNCWPRP	0.078
RRIRNRPPRLPRPRPRPADWPRP	0.044
RRIRDRPPRLPRPRPRPCEHPRP	-0.133
RRIRYRPPRLPRPRPRPYPNPRP	-0.36
RRIRVRPPRLPRPRPRPGHVPRP	0.0316
RRIRYRPPRLPRPRPRPIRFPRP	-0.0383
RRIRRRPPRLPRPRPRPENTPRP	-0.0822
RRIRDRPPRLPRPRPRPFVEPRP	-0.0362
RRIRARPPRLPRPRPRPDEVPRP	0.446
RRIRHRPPRLPRPRPRPDPYPRP	-0.126
RRIRWRPPRLPRPRPRPVVAPRP	0.28
RRIRPRPPRLPRPRPRPHALPRP	-0.376
RRIRRRPPRLPRPRPRPTWHPRP	0.429
RRIRKRPPRLPRPRPRPRMCPRP	-0.211
RRIRWRPPRLPRPRPRPACFPRP	0.513
RRIRHRPPRLPRPRPRPLCEPRP	0.197
RRIRGRPPRLPRPRPRPCSGPRP	-0.111
RRIRNRPPRLPRPRPRPLVVPRP	-0.117
RRIRVRPPRLPRPRPRPIKIPRP	-0.251
RRIRMRPPRLPRPRPRPFCYPRP	-0.117
RRIRTRPPRLPRPRPRPFHEPRP	-0.126
RRIRARPPRLPRPRPRPFKAPRP	0.0354
RRIRPRPPRLPRPRPRPYDGPRP	-0.7
RRIRRRPPRLPRPRPRPGTAPRP	0.414
RRIRPRPPRLPRPRPRPCMHPRP	-0.297
RRIRARPPRLPRPRPRPDVKPRP	0.395
RRIRRRPPRLPRPRPRPRETPRP	1.13

----------
Test system: Escherichia coli TOP10
Assay: shrunken log2 fold change of peptide-encoding DNA abundance (4.5 h post-induction vs induction); higher = less antimicrobial activity (less host growth inhibition)
Details: time post-induction: 4.5 h; library: site-saturation at positions 5, 18, 19, 20
ASSAY_METRIC: shrunken log2 fold change

SEQUENCE_ENTRY	ASSAY_METRIC	QUANTITATIVE_READOUT
RRIRVRPPRLPRPRPRPMNFPRP	shrunken log2 fold change	-0.349
RRIRIRPPRLPRPRPRPPMDPRP	shrunken log2 fold change	-0.372
RRIRQRPPRLPRPRPRPYEEPRP	shrunken log2 fold change	-0.434
RRIRFRPPRLPRPRPRPKGSPRP	shrunken log2 fold change	0.089
RRIRARPPRLPRPRPRPDFPPRP	shrunken log2 fold change	0.102
RRIRMRPPRLPRPRPRPVALPRP	shrunken log2 fold change	0.711
RRIRGRPPRLPRPRPRPTCFPRP	shrunken log2 fold change	1.14
RRIRGRPPRLPRPRPRPACYPRP	shrunken log2 fold change	0.896
RRIRCRPPRLPRPRPRPGKEPRP	shrunken log2 fold change	-0.0657
RRIRERPPRLPRPRPRPVAAPRP	shrunken log2 fold change	0.247
RRIRDRPPRLPRPRPRPMTHPRP	shrunken log2 fold change	0.0105
RRIRRRPPRLPRPRPRPAIPPRP	shrunken log2 fold change	-0.0158
RRIRFRPPRLPRPRPRPARAPRP	shrunken log2 fold change	1.31
RRIRMRPPRLPRPRPRPNKIPRP	shrunken log2 fold change	0.0176
RRIRARPPRLPRPRPRPYHVPRP	shrunken log2 fold change	-0.963
RRIRQRPPRLPRPRPRPSWRPRP	shrunken log2 fold change	0.0854
RRIRYRPPRLPRPRPRPTGVPRP	shrunken log2 fold change	-0.0415
RRIRKRPPRLPRPRPRPELLPRP	shrunken log2 fold change	0.394
RRIRWRPPRLPRPRPRPPIFPRP	shrunken log2 fold change	0.488
RRIRVRPPRLPRPRPRPWMMPRP	shrunken log2 fold change	-0.0912
RRIRFRPPRLPRPRPRPLRVPRP	shrunken log2 fold change	-0.108
RRIRTRPPRLPRPRPRPCSCPRP	shrunken log2 fold change	-0.0701
RRIRWRPPRLPRPRPRPYYWPRP	shrunken log2 fold change	-1.31
RRIRRRPPRLPRPRPRPNWWPRP	shrunken log2 fold change	1.05
RRIRTRPPRLPRPRPRPEADPRP	shrunken log2 fold change	0.0868
RRIRLRPPRLPRPRPRPQAFPRP	shrunken log2 fold change	0.0474
RRIRARPPRLPRPRPRPHDEPRP	shrunken log2 fold change	-0.00385
RRIRKRPPRLPRPRPRPNNFPRP	shrunken log2 fold change	-0.0233
RRIRNRPPRLPRPRPRPGALPRP	shrunken log2 fold change	0.0726
RRIRRRPPRLPRPRPRPDMGPRP	shrunken log2 fold change	0.00408
RRIRIRPPRLPRPRPRPCFGPRP	shrunken log2 fold change	-0.415
RRIRPRPPRLPRPRPRPACMPRP	shrunken log2 fold change	0.165
RRIRVRPPRLPRPRPRPPSKPRP	shrunken log2 fold change	1.13
RRIRCRPPRLPRPRPRPYKPPRP	shrunken log2 fold change	-0.705
RRIRARPPRLPRPRPRPSHPPRP	shrunken log2 fold change	-0.0758
RRIRIRPPRLPRPRPRPSSWPRP	shrunken log2 fold change	0.025

----------
Reported shrunken log2 fold change is given for each of the following sequences.
System: Escherichia coli TOP10;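 also: peptides expressed intracellularly from a pBAD plasmid library in pooled LB shake-flask culture, induced with 0.3% L-arabinose, DNA abundance read by NGS, three biological replicates, DESeq2 with apeglm shrinkage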
Assay: shrunken log2 fold change of peptide-encoding DNA abundance (4.5 h post-induction vs induction); higher = less antimicrobial activity (less host growth inhibition)
Conditions: time post-induction: 4.5 h; library: site-saturation at positions 5, 18, 19, 20

SEQUENCE_ENTRY	EXPERIMENTAL_TARGET	shrunken log2 fold change
RRIRGRPPRLPRPRPRPVYHPRP	Escherichia coli TOP10	-0.174
RRIRNRPPRLPRPRPRPPCMPRP	Escherichia coli TOP10	-0.0283
RRIRARPPRLPRPRPRPPEPPRP	Escherichia coli TOP10	0.686
RRIRPRPPRLPRPRPRPQTDPRP	Escherichia coli TOP10	-0.0886
RRIRHRPPRLPRPRPRPRFNPRP	Escherichia coli TOP10	-0.316
RRIRWRPPRLPRPRPRPCNDPRP	Escherichia coli TOP10	-0.172
RRIRPRPPRLPRPRPRPMSTPRP	Escherichia coli TOP10	-0.229
RRIRCRPPRLPRPRPRPFYYPRP	Escherichia coli TOP10	-0.97
RRIRWRPPRLPRPRPRPIIKPRP	Escherichia coli TOP10	-0.312
RRIRHRPPRLPRPRPRPPLDPRP	Escherichia coli TOP10	0.372
RRIRGRPPRLPRPRPRPLEEPRP	Escherichia coli TOP10	1.76
RRIRLRPPRLPRPRPRPQMGPRP	Escherichia coli TOP10	-0.0175
RRIRWRPPRLPRPRPRPEYNPRP	Escherichia coli TOP10	0.195
RRIRIRPPRLPRPRPRPDESPRP	Escherichia coli TOP10	-0.172
RRIRVRPPRLPRPRPRPYVNPRP	Escherichia coli TOP10	0.0651
RRIRWRPPRLPRPRPRPPWLPRP	Escherichia coli TOP10	0.526
RRIRERPPRLPRPRPRPEHKPRP	Escherichia coli TOP10	-0.0265
RRIRCRPPRLPRPRPRPANEPRP	Escherichia coli TOP10	0.0681
RRIRLRPPRLPRPRPRPWFHPRP	Escherichia coli TOP10	-0.352
RRIRCRPPRLPRPRPRPPFGPRP	Escherichia coli TOP10	0.213
RRIRPRPPRLPRPRPRPFRIPRP	Escherichia coli TOP10	0.000199
RRIRMRPPRLPRPRPRPREPPRP	Escherichia coli TOP10	0.447
RRIRTRPPRLPRPRPRPGNFPRP	Escherichia coli TOP10	-0.0548
RRIRCRPPRLPRPRPRPHVCPRP	Escherichia coli TOP10	0.0221
RRIRSRPPRLPRPRPRPTYAPRP	Escherichia coli TOP10	0.0244

This collection of values is drawn from the supplement of paper PMC9112550.
